Molecular target: T1, EsCas13d, nuclease-dead (Eubacterium siraeum, UniProt B0MS50, R295A;H300A;R849A;H854A)
T1 sequence: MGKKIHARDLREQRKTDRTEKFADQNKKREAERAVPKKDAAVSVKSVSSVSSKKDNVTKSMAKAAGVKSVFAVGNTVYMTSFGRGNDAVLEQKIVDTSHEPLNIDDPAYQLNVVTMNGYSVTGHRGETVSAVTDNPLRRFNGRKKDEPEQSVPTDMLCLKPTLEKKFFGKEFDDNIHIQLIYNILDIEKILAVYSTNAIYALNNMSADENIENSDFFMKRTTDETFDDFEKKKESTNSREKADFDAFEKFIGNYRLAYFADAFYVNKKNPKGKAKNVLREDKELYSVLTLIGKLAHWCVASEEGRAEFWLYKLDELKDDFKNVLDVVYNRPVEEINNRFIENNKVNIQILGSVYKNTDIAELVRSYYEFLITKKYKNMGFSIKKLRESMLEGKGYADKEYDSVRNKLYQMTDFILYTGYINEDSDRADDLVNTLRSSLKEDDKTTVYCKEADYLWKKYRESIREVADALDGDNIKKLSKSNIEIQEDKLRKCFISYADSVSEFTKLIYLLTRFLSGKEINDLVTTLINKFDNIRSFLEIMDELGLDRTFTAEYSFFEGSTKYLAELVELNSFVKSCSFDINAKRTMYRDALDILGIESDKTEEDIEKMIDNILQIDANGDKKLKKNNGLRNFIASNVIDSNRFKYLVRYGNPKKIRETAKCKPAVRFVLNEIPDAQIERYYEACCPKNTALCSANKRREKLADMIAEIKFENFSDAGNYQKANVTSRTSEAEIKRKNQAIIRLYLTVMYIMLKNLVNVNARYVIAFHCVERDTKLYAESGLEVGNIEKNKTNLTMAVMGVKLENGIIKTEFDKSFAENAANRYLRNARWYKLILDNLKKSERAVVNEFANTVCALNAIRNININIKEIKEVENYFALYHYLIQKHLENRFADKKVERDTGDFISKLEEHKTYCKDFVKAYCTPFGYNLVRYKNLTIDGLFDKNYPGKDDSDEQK
Experiment: crRNA (strand 1, pre-loaded); Mg2+; 40 mM Tris-HCl pH 7.5, 150 mM NaCl, 6 mM MgCl2, 1 mM DTT, 0.1% Tween-20, 0.2 mg/ml BSA; 25 C; 10 min per concentration, then washed
Conditions: tags: His6-TwinStrep-SUMO cleaved; N-terminal SNAP kept (SNAP-Surface 488); label: 3' end held by stalled T7 RNA polymerase
Catalogue of log10 Kd readings, one per entry.
Note the log scale: values are log10 of Kd expressed in nM.

The cases that follow already have their log10 Kd on record.
[Q] Given the binder target 1 MT 5'PFS UUA 3'PFS UUA (mixed) RNA 1: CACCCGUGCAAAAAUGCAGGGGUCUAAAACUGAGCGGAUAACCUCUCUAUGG RNA 2: GGGAAUGGAUCCACAUCUACGAAUUCUUACCAUAGAGAGGUUAUCCGCUCAUUAAGAUCGGAAGAGCACACGU , what is its reported log10 Kd?
[A] 1.48

[Q] Given the binder target 1 insG 3' of 7,insG 3' of 2 (mixed) RNA 1: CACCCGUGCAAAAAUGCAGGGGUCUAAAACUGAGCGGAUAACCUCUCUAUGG RNA 2: GGGAAUGGAUCCACAUCUACGAAUUCGUACCAUAGAGAGGUUAUCGCGCUCGACCGAGAUCGGAAGAGCACACGU , what is its reported log10 Kd?
[A] 0.84

[Q] Given the binder target 2 MT 5'PFS UUU 3'PFS ACU (mixed) RNA 1: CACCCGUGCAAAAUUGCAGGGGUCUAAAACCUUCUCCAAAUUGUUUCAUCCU RNA 2: GGGAAUGGAUCCACAUCUACGAAUUCUUUAGGAUGAAACAAUUUGGAGAAGACUAGAUCGGAAGAGCACACGU , what is its reported log10 Kd?
[A] 0.96

[Q] Given the binder target 1 A1U,G17U (mixed) RNA 1: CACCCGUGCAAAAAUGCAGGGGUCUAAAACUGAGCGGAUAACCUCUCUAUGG RNA 2: GGGAAUGGAUCCACAUCUACGAAUUCGUACCAUAUAGAGGUUAUCCGCUCUCCGAGAUCGGAAGAGCACACGU , what is its reported log10 Kd?
[A] 1.27

Next:
[Q] Given the binder target 1 insU 3' of 20,insA 3' of 6 (mixed) RNA 1: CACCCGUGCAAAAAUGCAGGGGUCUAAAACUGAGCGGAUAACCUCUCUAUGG RNA 2: GGGAAUGGAUCCACAUCUACGAAUUCGUACCAUUAGAGAGGUUAUCCAGCUCACCGAGAUCGGAAGAGCACACGU , what is its reported log10 Kd?
[A] 1.20

[Q] Given the binder target 2 MT 5'PFS UGG 3'PFS ACU (mixed) RNA 1: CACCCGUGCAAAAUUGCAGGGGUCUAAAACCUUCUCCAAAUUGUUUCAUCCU RNA 2: GGGAAUGGAUCCACAUCUACGAAUUCUGGAGGAUGAAACAAUUUGGAGAAGACUAGAUCGGAAGAGCACACGU , what is its reported log10 Kd?
[A] 0.98

[Q] Given the binder target 2 MT 5'PFS CUG 3'PFS AAC (mixed) RNA 1: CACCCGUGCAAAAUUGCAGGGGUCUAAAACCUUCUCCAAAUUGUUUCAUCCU RNA 2: GGGAAUGGAUCCACAUCUACGAAUUCCUGAGGAUGAAACAAUUUGGAGAAGAACAGAUCGGAAGAGCACACGU , what is its reported log10 Kd?
[A] 0.53

[Q] Given the binder target 3 A9G,U21A (mixed) RNA 1: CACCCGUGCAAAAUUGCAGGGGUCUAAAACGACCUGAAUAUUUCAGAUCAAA RNA 2: GGGAAUGGAUCCACAUCUACGAAUUCGUUUAUGAUCUGAAAUGUUCAGGUCUGCAGAUCGGAAGAGCACACGU , what is its reported log10 Kd?
[A] 1.98
